Data credit: the kinase profiling compilation of Christmann-Franck et al. (2016)

# kinase still bound, per cent of control per entry
molecular target: PKMYT1 (human) (UniProt Q99640); assay: KINOMEscan competition binding; conditions: compound 10.0 µM
Sequence (Q99640 whole entry, looked up): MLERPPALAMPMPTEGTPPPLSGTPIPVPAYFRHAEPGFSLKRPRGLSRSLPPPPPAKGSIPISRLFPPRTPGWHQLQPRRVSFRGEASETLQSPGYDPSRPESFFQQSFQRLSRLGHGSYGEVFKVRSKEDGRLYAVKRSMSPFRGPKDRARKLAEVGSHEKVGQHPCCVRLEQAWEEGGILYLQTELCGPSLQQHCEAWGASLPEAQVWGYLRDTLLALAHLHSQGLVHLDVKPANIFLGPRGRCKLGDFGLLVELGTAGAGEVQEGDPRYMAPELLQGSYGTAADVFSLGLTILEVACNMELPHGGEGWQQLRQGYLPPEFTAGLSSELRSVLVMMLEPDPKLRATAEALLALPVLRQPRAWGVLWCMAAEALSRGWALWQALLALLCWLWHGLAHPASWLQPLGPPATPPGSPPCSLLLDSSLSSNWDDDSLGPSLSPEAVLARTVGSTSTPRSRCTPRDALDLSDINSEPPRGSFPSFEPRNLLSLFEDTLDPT

| Structure Notation | Unit Info | kinase still bound, per cent of control |
| --- | --- | --- |
| CN(C)C/C=C/C(=O)Nc1ccc(C(=O)Nc2cccc(Nc3nccc(-c4cccnc4)n3)c2)cc1 | % | 100 |
| N#CCNC(=O)c1ccc(-c2ccnc(Nc3ccc(N4CCOCC4)cc3)n2)cc1 | % | 100 |
| O=c1cc(N2CCOCC2)oc2c(-c3cccc4c3sc3ccccc34)cccc12 | % | 92 |
| Cc1n[nH]c2ccc(-c3cncc(OC[C@@H](N)Cc4c[nH]c5ccccc45)c3)cc12 | % | 100 |
| C[C@@H](Oc1cc(-c2cnn(C3CCNCC3)c2)cnc1N)c1c(Cl)ccc(F)c1Cl | % | 100 |
